Data provenance is patent US11465997B2.

# experimentSummary: 72 h killing (cytotoxicity) assay, HEK 293T
# Format: cell-based
# conditionSet: human; 293T (HEK 293T) cells; read-out: Cytotoxic activity IC50
propertyMeasured: IC50 at 72 h (nM)
Numbers only, in nM.

For reference, reported IC50 at 72 h for C/C=C/[C@H](O)C(C)(C)[C@@H]1C\C=C/C=C\C=C\[C@H](OC)Cc2nc(co2)C(=O)O[C@H](C(C)(C)[C@@H](O)/C=C/C)C/C=C\[C@H]2C[C@H]2/C=C/C=C\c2nc(co2)C(=O)O1 [compound 5] stands at 0.06
